Recorded IC50 by entry
# Tested on: human prostate adenocarcinoma PC-3 cells
# ASSAY NAME: MTT cytotoxicity assay, PC-3
# Type: cell-based
# MEASUREMENT CONTEXT: Homo sapiens, MTT, 72 h, n = 3, ± SD, read-out: Adhesive Cell Cultures, IC50 PC-3
# number then unit; no other words

Recorded IC50, per entry:
ENTRY SMILES: C=C1C2=C(C(=O)N1OC)[C@@H](NCCO)[C@@](C)(O)[C@H](CCCCC)O2
IC50: 5.55 µM
//
ENTRY SMILES: C=C1C2=C(C(=O)N1OC)[C@@H](N1CCC(N3CCCC3)CC1)[C@@](C)(O)[C@H](CCCCC)O2
IC50: 3.65 µM

Here is another compound to look at.
Need IC50 of C=CCN[C@@H]1C2=C(O[C@@H](CCCCC)[C@]1(C)O)C(=C)N(OC)C2=O , thanks.
6.37 µM
